testSystem: T1, human BAFF (residues 82-285) (human, UniProt Q9Y275 82-285)
T1 construct: Coated on plates in the ELISAs; also used biotinylated or free in solution for phage sorting; also called BAFF82-285; BLyS82-285
T1 sequence (Q9Y275 82-285): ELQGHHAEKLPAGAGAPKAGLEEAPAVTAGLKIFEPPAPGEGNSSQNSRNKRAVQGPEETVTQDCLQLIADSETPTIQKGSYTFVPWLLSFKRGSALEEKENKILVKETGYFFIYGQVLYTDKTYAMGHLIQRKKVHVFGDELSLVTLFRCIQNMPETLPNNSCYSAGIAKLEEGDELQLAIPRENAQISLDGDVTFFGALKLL
testSummary: phage display selection on BAFF
Bridges are numbered along the chain shown (N, C = ends). Where no end group is shown, it is not given here.
reportedProperty: binding result

binder="ECFDSLVRIWVPCGLID [SEQ ID NO 141]" reportedproperty="binding result" measuredvalue=binds
binder="ECFDLLVRSWVPCGTLM [SEQ ID NO 69]" reportedproperty="binding result" measuredvalue=binds
binder="ECFDLLVRGWVPCSVLQ [SEQ ID NO 93]" reportedproperty="binding result" measuredvalue=binds
binder="ECFDPLVARWVPCHLIN (disulfide 2-13 (inferred)) [SEQ ID NO 99]" reportedproperty="binding result" measuredvalue=binds
